Recorded activation, one value per entry.
molecular target: Cellular tumor antigen p53 (Homo sapiens); assay: Primary qHTS for small molecule compounds that upregulate eGFP-tagged delta133p53alpha (in N-terminal) cells. (AID 2060322); settings: NCI-H358 eGFP-delta133p53alpha fluorescence, 24 h; hits give high values;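 also: cells pre-induced with doxycycline then dosed without doxycycline; 0% = DMSO vehicle and 100% = reference activator; nearly all actives have a fitted effect of over 75% in size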
Results filed as inconclusive are left out.

compound	experimental_system	activation (%)
O=C(O)c1ccccc1Nc1cccc(C(F)(F)F)c1	Cellular tumor antigen p53 (Homo sapiens)	-19.8
NC1CCN(c2nc3c(cc2F)c(=O)c(C(=O)O)cn3-c2ccc(F)cc2F)C1 (stereo not given)	Cellular tumor antigen p53 (Homo sapiens)	11.9
O=C(CCc1nnc2n(Cc3ccc(Cl)cc3)c(=O)c3ccccc3n12)NCCC1=CCCCC1	Cellular tumor antigen p53 (Homo sapiens)	4.3
CC1=C[C@H](O)[C@H]2C(C)(C)CCC[C@]2(C)[C@@]1(O)CO	Cellular tumor antigen p53 (Homo sapiens)	-2.68
COc1cc2c(cc1Cc1cccc(Cl)c1F)c(=O)c(C(=O)O)cn2[C@H](CO)C(C)C	Cellular tumor antigen p53 (Homo sapiens)	-15

---

assay: BET inhibitor-based combinations targeting novel dependencies in MECOM-rearranged (r) AML: AML-194 cell line (AID 2202237; also: nearly all actives have a fitted effect of over 40% in size); conditions: AML-194 (MECOM-r AML) viability, CellTiter-Glo, 48 h; series mostly up to 46 µM
Results filed as inconclusive are left out. Activity calls are given as the source filed them. The call rests on the fitted dose curve; in most records, active means well fitted inhibition curve with a large enough effect; inconclusive means small, poorly fitted or top-dose-only effect; inactive means flat fitted curve, though single readings scatter.
Classes used: label 1 = active, label 0 = inactive

molecule	assigned_label
Nc1cccc2c1C(=O)N(C1CCC(=O)NC1=O)C2=O (stereo not drawn)	label 0
CCC(C)n1ncn(-c2ccc(N3CCN(c4ccc(OC[C@H]5CO[C@](Cn6cncn6)(c6ccc(Cl)cc6Cl)O5)cc4)CC3)cc2)c1=O (stereo partly drawn)	label 0
CCc1c2c(nc3ccc(O)cc13)-c1cc3c(c(=O)n1C2)COC(=O)[C@]3(O)CC	label 1
CCC1(c2ccccc2)C(=O)NCNC1=O	label 0
CN1CCN2c3ncccc3Cc3ccccc3C2C1 (stereo not drawn)	label 0
C[C@@H](c1ccc2nccn2c1)n1nnc2ncc(-c3cnn(C)c3)nc21	label 0
O=C1CCCC(=O)C1C(=O)c1ccc(C(F)(F)F)cc1[N+](=O)[O-]	label 0
CO[C@@H]1COCC[C@@H]1N[C@@H]1CC[C@@](C(=O)N2CCc3ncc(C(F)(F)F)cc3C2)(C(C)C)C1	label 0
CN[C@@H]1[C@H](O[C@H]2[C@H](O[C@@H]3[C@@H](O)[C@H](O)[C@@H](N=C(N)N)[C@H](O)[C@H]3N=C(N)N)O[C@@H](C)[C@]2(O)C=O)O[C@@H](CO)[C@H](O)[C@H]1O	label 0
C#CC[C@H](c1nc2cc(Cl)ccc2c(=O)n1Nc1ccccc1)N(CCCN)C(=O)c1cccc(Cl)c1F	label 1
Cc1ccccc1C(=O)Nc1ccc(C(=O)N2CCCC(O)c3cc(Cl)ccc32)c(C)c1 (stereo not drawn)	label 0
CCOC(=O)N1c2ccc(C(F)(F)F)cc2[C@@H](N(Cc2cc(C(F)(F)F)cc(C(F)(F)F)c2)C(=O)OC)C[C@H]1CC	label 0
CC(C)NCC(O)COc1ccc(CCOCC2CC2)cc1 (stereo not drawn)	label 0
OCc1ccccc1O[C@@H]1O[C@H](CO)[C@@H](O)[C@H](O)[C@H]1O	label 0
CCOC(=O)C(C)(C)Oc1ccc(Cl)cc1	label 0
CN1C(=O)c2sccc2N(C)c2nc(Nc3ccc(S(N)(=O)=O)cc3)ncc21	label 1
CS(=O)(=O)c1ccc(Oc2cc(F)cc(C#N)c2)c2c1[C@H](O)C(F)(F)C2	label 0
CS(=O)(=O)Oc1ccc2c(NC(N)=O)c(C(=O)c3ccc(Cl)cc3Cl)oc2c1	label 0
CC(N)C12CC3CC(CC(C3)C1)C2 (stereo not drawn)	label 0
Nc1ccccc1NC(=O)c1ccc(CNc2nccc(-c3cccnc3)n2)cc1	label 1
O=C(Nc1ccc([N+](=O)[O-])cc1Cl)c1cc(Cl)ccc1O	label 1
O=C(C1CC1)N1CC[C@@H](Cc2n[nH]c(=O)n2-c2ccc(-c3ccc4occc4c3)cc2)C1	label 0
CCn1cc(C(=O)O)c(=O)c2cc(F)c(N3CCN(C)CC3)cc21	label 0
CC(C)Nc1cc(-c2c[nH]c(C(=O)N[C@H](CO)c3cccc(Cl)c3)c2)c(Cl)cn1	label 1
C[C@@]1(C(=O)Nc2ccc(F)nc2)CCCN1c1nc(Nc2cc(C3CC3)[nH]n2)c2cccn2n1	label 1
Cc1cc(=O)oc2cc(O)ccc12	label 0
CC(C)CC(=O)Nc1n[nH]c2c1CN(C(=O)C1CCN(C)CC1)C2(C)C	label 1
CN(C)C/C=C/C(=O)Nc1ccc(C(=O)Nc2cccc(Nc3ncc(Cl)c(-c4c[nH]c5ccccc45)n3)c2)cc1	label 1
C[C@H](CCC(=O)O)[C@H]1CCC2C3C[C@H](O)[C@@H]4C[C@H](O)CC[C@]4(C)C3CC[C@@]21C (stereo partly drawn)	label 0
Cc1ccccc1N1C(=O)c2cc(S(N)(=O)=O)c(Cl)cc2NC1C (stereo not drawn)	label 0
O=C(Nc1ccccc1-c1cn2c(CN3CCNCC3)csc2n1)c1cnc2ccccc2n1	label 1
CCN1CCN(CC(=O)Nc2ccc(-c3cccc4c(=O)cc(N5CCOCC5)oc34)c3sc4ccccc4c23)CC1	label 1
NC(=O)c1cnc(-c2ccc(C3(N)CCC3)cc2)c(-c2ccccc2)c1	label 0
COc1cc2c(cc1OC)CC(=O)N(CCCN(C)C[C@H]1Cc3cc(OC)c(OC)cc31)CC2	label 0
O=C(O)CCNC(=O)c1ccc(N=Nc2ccc(O)c(C(=O)O)c2)cc1	label 0
Cc1cccc(Nc2nc(-c3ccncc3)cs2)c1	label 0
COc1ncc(-c2ccc3c(Nc4cc(Oc5cc(F)cc(F)c5)cc(C(=O)O)c4)c(S(=O)(=O)NC4CC4)cnc3c2)c(OC)n1	label 0
c1cc(-c2cnn3cc(-c4ccc(N5CCNCC5)cc4)cnc23)c2cccnc2c1	label 1
